Some compounds, each annotated with its measured inhibition.
TEST_DETAILS: TNF-a-driven NF-kB reporter inhibitors, primary screen, selectivity assay for NOD1/NOD2 signaling inhibitor project, cell-based, HEK293T NF-kB-Luc, luminescence (AID 1852)
TEST_PARAMETERS: TNF-a induced, 14 h, at 4 µM, active compounds read high
Among all 2,500 compounds or so, about 1,100 (44%) were called active. So high a share suggests a set chosen from earlier hits. This is one part of the list.

# SMILES_ENTRY, inhibition [%]
rows = [
    ("CCCNC(=O)COC(=O)c1ccccc1C(=O)c1ccc(Cl)c([N+](=O)[O-])c1", 65.9),
    ("O=C(COC(=O)c1ccccc1C(=O)c1ccc(Cl)c([N+](=O)[O-])c1)NC1CC1", 73.1),
    ("O=C(COC(=O)c1ccccc1C(=O)c1ccc(Cl)c([N+](=O)[O-])c1)NC1CCCCCC1", 27.6),
    ("CCOC(=O)/C=C/C(=O)Nc1ccc(S(=O)(=O)Nc2c(C)cc(C)cc2C)cc1", 25.7),
    ("CC(C)c1ccc(-c2nc3ccccc3s2)cc1", 14.5),
    ("N#Cc1cccc(NC(=O)Cn2cnc(S(=O)(=O)N3CCc4ccccc43)c2)c1", 8.2),
    ("COc1ccc(CC(=O)Nc2ccncc2Cl)cc1", 54),
    ("Cc1cc(OCC(=O)Nc2ccncc2)cc(C)c1Cl", 41),
    ("CCOC(=O)c1c(C)nc2sc3c(=O)n(-c4ccc(C(C)=O)cc4)nnc3c2c1-c1ccc(OC)cc1", 5.1),
    ("Cc1ccc(-c2nnc(SCC(=O)Nc3ccccc3F)o2)cc1", 37.8),
    ("O=C(OCn1ncc(Cl)c(Cl)c1=O)c1cccc(C(F)(F)F)c1", 43),
    ("O=c1c(Cl)c(Cl)cnn1Cc1nnc(-c2ccc(Cl)cc2)o1", 51.5),
    ("N#Cc1cccc(NC(=O)COC(=O)c2ccccc2C(=O)c2ccc(Cl)c([N+](=O)[O-])c2)c1", 83.2),
    ("O=c1c(Cl)c(Cl)cnn1Cc1nnc(-c2ccccc2Br)o1", 108),
    ("COC(=O)N1C(=O)[C@@](Cc2ccccc2)(c2ccccc2)N1C(=O)OC", 59.8),
    ("CCOC(=O)/C=C/S(=O)(=O)c1ccc(NC(C)=O)cc1", 64),
    ("COC(=O)N1C(=O)[C@](CC(C)C)(c2ccccc2)N1C(=O)OC", 45.2),
    ("COc1ccc(OC)c(CCNC(=O)Cn2nc(C)c3c(C)n(-c4ccc(C)cc4)nc3c2=O)c1", 69.7),
    ("O=C(COc1ccc(Br)cc1)Nc1ccc(Cc2ccncc2)cc1", 64.1),
    ("O=C(NCc1cc(Br)cc(Br)c1OC(=O)c1ccccc1[N+](=O)[O-])c1ccccc1", -35.5),
    ("CCn1nc(C)c(NC(=O)/C=C/c2ccc(OC)c(COc3ccc(Br)cc3)c2)c1C", 38.5),
]

----------
TEST_DETAILS: TNF-a-driven NF-kB reporter inhibitors, primary screen, selectivity assay for NOD1/NOD2 signaling inhibitor project, cell-based, HEK293T NF-kB-Luc, luminescence (AID 1852)
TEST_PARAMETERS: TNF-a induced, 14 h, at 4 µM, active compounds read high
Out of some 2,500 compounds screened, about 1,100 (44%) were called active. So high a share suggests a set chosen from earlier hits. Some of the results follow.

# COMPOUND, UNIT_INFO, inhibition
measured = [
    ("CCN(CCn1cccn1)C(=O)CC1C(=O)NCCN1CCc1ccccc1 (configuration not stated)", "%", 50.2),
    ("COc1cc(CNc2ccc3[nH]c(=O)[nH]c3c2)ccc1OCc1cccc(C)c1", "%", 44.3),
    ("CCOc1ccc(S(=O)(=O)Nc2cnc3ccccc3c2)cc1", "%", 81.5),
    ("O=C(CCl)N=c1sccn1Cc1cccc2ccccc12", "%", 44.1),
    ("CCCC(=O)NC(c1cccs1)c1cc([N+](=O)[O-])c2cccnc2c1O (configuration not stated)", "%", 71.3),
    ("CC(=O)Nc1ccc(S(=O)(=O)Nc2ccc3c(c2)CCC3)cc1", "%", 85),
    ("c1ccc(CNc2ncnc3scc(-c4cccs4)c23)nc1", "%", 57.5),
    ("COc1cccc(NS(=O)(=O)c2ccc3c(c2)CCN3C(C)=O)c1", "%", 41.6),
    ("CCn1cc([N+](=O)[O-])c(C(=O)N2N=C(c3ccc(OC)cc3OC)CC2c2ccccc2O)n1 (configuration not stated)", "%", 86.6),
    ("S=C(Nc1ccc(Cl)c(Cl)c1)NC1CCCCC1", "%", 44.7),
    ("CCOc1ccc(NS(=O)(=O)c2ccc3[nH]c(=O)[nH]c3c2)cc1", "%", 88.5),
    ("N#CC(C#N)=C(Nc1ccc(F)cc1)SCc1cccc(F)c1", "%", 81.7),
    ("CCOc1ccc(NS(=O)(=O)c2cc(Cl)ccc2OC)cc1", "%", 10.6),
    ("COc1ccc(C(=O)/C=C/C(=O)N(CC(=O)NC2CCCCC2)Cc2ccccc2OC)c(O)c1", "%", 33.1),
    ("N#CC(C#N)=C(Nc1ccc(F)cc1)SCc1cccc(Br)c1", "%", 54.7),
    ("CCn1cc([N+](=O)[O-])c(C(=O)N2N=C(c3ccc4ccccc4c3)CC2c2cc(Br)ccc2O)n1 (configuration not stated)", "%", -56.7),
    ("CC(=O)c1cccc(NS(=O)(=O)c2ccc(NC(=O)N3CCCCC3)cc2)c1", "%", 19.3),
    ("COc1ccc(C(C(=O)NC2CCCCC2)N(C(=O)CCl)c2ccccc2Cl)cc1 (configuration not stated)", "%", 6.2),
    ("CC1=Nc2ccccc2/C1=C/c1sc(=N)n(-c2nccs2)c1O", "%", 99.2),
    ("c1ccc(-c2csc3ncnc(NCc4ccccn4)c23)cc1", "%", 13.4),
    ("CCc1cccc(NC(=O)C2CCCN(S(=O)(=O)c3cccs3)C2)c1 (configuration not stated)", "%", 18.2),
    ("Cc1cccc(NC2=C/C(=N/S(=O)(=O)c3cccs3)c3ccccc3C2=O)c1", "%", 63.9),
]
